# tested.system: JAK2 (Homo sapiens)
# Construct: purchased Invitrogen
# Sequence (O60674 whole entry): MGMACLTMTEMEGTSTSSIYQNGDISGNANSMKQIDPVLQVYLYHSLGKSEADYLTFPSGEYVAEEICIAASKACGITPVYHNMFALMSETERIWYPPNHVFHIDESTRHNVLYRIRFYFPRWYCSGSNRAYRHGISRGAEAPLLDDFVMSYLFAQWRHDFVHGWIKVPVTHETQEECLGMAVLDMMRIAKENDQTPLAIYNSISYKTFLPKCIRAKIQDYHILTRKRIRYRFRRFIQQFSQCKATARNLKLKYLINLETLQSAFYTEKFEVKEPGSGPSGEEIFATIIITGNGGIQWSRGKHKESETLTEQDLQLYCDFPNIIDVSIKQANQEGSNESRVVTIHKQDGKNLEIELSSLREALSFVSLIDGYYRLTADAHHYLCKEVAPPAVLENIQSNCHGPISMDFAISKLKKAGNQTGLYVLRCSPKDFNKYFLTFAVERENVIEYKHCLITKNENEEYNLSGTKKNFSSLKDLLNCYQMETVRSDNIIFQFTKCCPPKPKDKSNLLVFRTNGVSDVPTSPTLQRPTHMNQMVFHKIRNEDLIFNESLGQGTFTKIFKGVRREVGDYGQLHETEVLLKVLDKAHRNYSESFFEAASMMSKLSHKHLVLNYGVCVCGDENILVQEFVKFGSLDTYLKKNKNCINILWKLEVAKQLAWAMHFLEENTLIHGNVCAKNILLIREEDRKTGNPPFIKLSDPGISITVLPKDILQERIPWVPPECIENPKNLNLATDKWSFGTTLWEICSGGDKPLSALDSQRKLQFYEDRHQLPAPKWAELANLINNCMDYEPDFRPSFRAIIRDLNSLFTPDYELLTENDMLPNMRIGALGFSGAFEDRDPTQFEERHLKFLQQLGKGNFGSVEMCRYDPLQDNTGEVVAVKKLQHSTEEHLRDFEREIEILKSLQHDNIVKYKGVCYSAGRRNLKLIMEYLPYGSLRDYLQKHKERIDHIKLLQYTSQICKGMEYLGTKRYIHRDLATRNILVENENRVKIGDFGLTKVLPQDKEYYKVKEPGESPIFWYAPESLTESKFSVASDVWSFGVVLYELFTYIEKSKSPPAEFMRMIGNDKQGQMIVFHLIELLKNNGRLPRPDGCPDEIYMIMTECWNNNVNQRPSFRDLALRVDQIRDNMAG
# procedure.text: JAK2 enzyme inhibition test (LANCE method)
# Type: biochemical
# experimental.conditions: 1 μM test compound; read-out: JAK2 enzyme inhibitory activity (%, 1 μM)
reported.endpoint: inhibition at 1 µM (%)

COC1(c2cc(-c3cn([C@@H](C)C(C)C)c(=O)c4c(N)n[nH]c34)nn2C)CCS(=O)(=O)CC1 | 99
CC(C)[C@H](C)n1cc(-c2cc(N3CCN4CCCC4C3)n(C)n2)c2[nH]nc(N)c2c1=O (stereo partly shown) | 98
COC[C@H]1CCCN1c1cc(-c2cn([C@@H](C)C(C)C)c(=O)c3c(N)n[nH]c23)nn1C | 98
CC(C1CC1)n1cc(-c2cc(CN3CCS(=O)(=O)CC3)n(C)n2)c2[nH]nc(N)c2c1=O (stereo not shown) | 99
C[C@@H](C1CC1)n1cc(-c2cc(N3CCOCC3)n(C)n2)c2[nH]nc(N)c2c1=O | 100
Cn1nc(-c2cn(C(C3CC3)C3CC3)c(=O)c3c(N)n[nH]c23)cc1N1CCN2CCC[C@@H]2C1 | 100
COC1CCN(c2cc(-c3cn([C@@H](C)C(C)C)c(=O)c4c(N)n[nH]c34)nn2C)CC1 | 99

Hello, the source for this data is patent US9637483B2, in case you need it.
